meta.source: paper PMC6797808

molecular target: PHL (Photorhabdus asymbiotica, UniProt C7BLE4); assay: Isothermal titration calorimetry of PHL with ligands; assay type: binding; conditions: ITC; KD L-fucose / KD ligand
Sequence (C7BLE4 entry or part of it): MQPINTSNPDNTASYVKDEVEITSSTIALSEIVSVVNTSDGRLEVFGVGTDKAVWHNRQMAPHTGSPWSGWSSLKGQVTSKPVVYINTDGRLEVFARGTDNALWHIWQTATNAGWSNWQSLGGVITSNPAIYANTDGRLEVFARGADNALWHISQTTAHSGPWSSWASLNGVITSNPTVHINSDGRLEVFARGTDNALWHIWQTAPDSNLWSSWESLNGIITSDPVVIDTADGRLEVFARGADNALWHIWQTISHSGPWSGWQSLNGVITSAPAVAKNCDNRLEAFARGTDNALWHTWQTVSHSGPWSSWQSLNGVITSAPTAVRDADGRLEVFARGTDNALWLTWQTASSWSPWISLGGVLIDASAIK
Would you mind telling me the reported Potency L-Fuc of each entry?
Answers are plain numbers.

compound	Potency L-Fuc
C[C@@H]1O[C@@H](CCn2cc(COCC(COCc3cn(CC[C@@H]4O[C@@H](C)[C@@H](O)[C@@H](O)[C@@H]4O)nn3)(COCc3cn(CC[C@@H]4O[C@@H](C)[C@@H](O)[C@@H](O)[C@@H]4O)nn3)COCc3cn(CC[C@@H]4O[C@@H](C)[C@@H](O)[C@@H](O)[C@@H]4O)nn3)nn2)[C@@H](O)[C@H](O)[C@@H]1O	38
C[C@@H]1O[C@@H](CCN=[N+]=[N-])[C@@H](O)[C@H](O)[C@@H]1O [Azide 1]	13
CO[C@@H]1O[C@@H](C)[C@@H](O)[C@@H](O)[C@@H]1O [α-Me-Fuc, methyl α-L-fucopyranoside, reference compound]	5
C[C@@H]1O[C@@H](CCn2cc(COCC(COCc3cn(CC[C@@H]4O[C@@H](C)[C@@H](O)[C@@H](O)[C@@H]4O)nn3)(COCc3cn(CC[C@@H]4O[C@@H](C)[C@@H](O)[C@@H](O)[C@@H]4O)nn3)COCC(COCc3cn(CC[C@@H]4O[C@@H](C)[C@@H](O)[C@@H](O)[C@@H]4O)nn3)(COCc3cn(CC[C@@H]4O[C@@H](C)[C@@H](O)[C@@H](O)[C@@H]4O)nn3)COCc3cn(CC[C@@H]4O[C@@H](C)[C@@H](O)[C@@H](O)[C@@H]4O)nn3)nn2)[C@@H](O)[C@H](O)[C@@H]1O	112
C[C@H](O)[C@@H](O)[C@@H](O)[C@H](O)C=O [L -Fuc, L-fucose, reference compound]	1

Continue with the compound presented below.
Query: Given C[C@@H]1OC(CCCCC2O[C@@H](C)[C@@H](O)[C@@H](O)[C@@H]2O)[C@@H](O)[C@H](O)[C@@H]1O (stereo partly drawn) [Difucoside 5, 1,4-bis(fucopyranosyl)butane] , state its recorded Potency L-Fuc.
Reply: 12
